- Target System: HLA-A*26:01
- Test: IEDB peptide-MHC binding, purified MHC/competitive/radioactivity; filed as Kd, often an IC50 or EC50 that approximates it; bounds were set here for any values at or beyond the usual limits of such assays
- Measurement Context: source organism: Lassa virus Josiah
Observation Type: Kd

# Sequence Code, Value Measured
measured = [
    ("YCNYSKYWY", "≥ 77.9 µM"),
]

Now, please, on to the next sequence.
## Task Any idea what its Kd is? The sequence is ICLSGDGWPY
## Result ≥ 69.7 µM

---

- Target System: HLA-B*07:02
- Test: IEDB peptide-MHC binding, purified MHC/direct/fluorescence; filed as Kd, often an IC50 or EC50 that approximates it; bounds were set here for any values at or beyond the usual limits of such assays
- Measurement Context: source organism: Mycobacterium tuberculosis str. Haarlem
Observation Type: Kd (nM)
Number in nM, nothing else.

## Task If you can, please state the reported Kd value of LPAQLTATA .
## Result 441
